This collection of values is drawn from the supplement of paper PMC7877785.

Assay explanation: self-splicing fitness, log relative to wild type (ln ratio); higher = more splicing; Tetrahymena group I intron in knt gene, E. coli kanamycin selection, DiMSum; sequences stand for … in CUCUCU…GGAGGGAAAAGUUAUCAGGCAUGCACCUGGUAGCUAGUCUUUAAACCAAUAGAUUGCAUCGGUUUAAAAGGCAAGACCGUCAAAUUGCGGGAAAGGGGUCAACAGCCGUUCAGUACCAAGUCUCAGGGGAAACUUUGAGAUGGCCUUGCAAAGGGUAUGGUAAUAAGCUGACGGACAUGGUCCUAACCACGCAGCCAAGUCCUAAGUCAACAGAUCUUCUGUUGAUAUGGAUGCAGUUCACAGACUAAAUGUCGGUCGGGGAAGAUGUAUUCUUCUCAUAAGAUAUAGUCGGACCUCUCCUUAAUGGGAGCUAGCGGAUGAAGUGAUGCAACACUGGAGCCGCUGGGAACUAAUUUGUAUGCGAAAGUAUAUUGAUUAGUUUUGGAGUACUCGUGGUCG;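 also: selection with 25 µg/mL kanamycin versus none on LB agar overnight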
Measurement conditions: 37 °C
Catalogue of sequences with associated self-splicing fitness (ln)

Worked examples follow.
Sequence data: UCUGAGCAAUAUUACGUAGG
Measured value: -0.306
//
Sequence data: GCUUAGCAAUAUUACGCCCA
Measured value: -0.0842
//
Sequence data: CCGUAGCAAUAUUACGCCUG
Measured value: -0.0205
//
Sequence data: GCUGAGCAAUAUUACGCUGC
Measured value: -1.92
//
Sequence data: CCCGAGCAAUAUUACGGCGG
Measured value: -1.66

Fill in reported self-splicing fitness (ln) for this entry: CACGAGCAAUAUUACGUGAU
-2.05

Fill in reported self-splicing fitness (ln) for this entry: GACUAGCAAUAUUACGCUCA
-0.306

Fill in reported self-splicing fitness (ln) for this entry: CUGUAGCAAUAUUACGCGUC
-2.41

###

Catalogue of sequences with associated self-splicing fitness (ln)
Assay explanation: self-splicing fitness, log relative to wild type (ln ratio); higher = more splicing; Tetrahymena group I intron in knt gene, E. coli kanamycin selection, DiMSum; sequences stand for … in CUCUCU…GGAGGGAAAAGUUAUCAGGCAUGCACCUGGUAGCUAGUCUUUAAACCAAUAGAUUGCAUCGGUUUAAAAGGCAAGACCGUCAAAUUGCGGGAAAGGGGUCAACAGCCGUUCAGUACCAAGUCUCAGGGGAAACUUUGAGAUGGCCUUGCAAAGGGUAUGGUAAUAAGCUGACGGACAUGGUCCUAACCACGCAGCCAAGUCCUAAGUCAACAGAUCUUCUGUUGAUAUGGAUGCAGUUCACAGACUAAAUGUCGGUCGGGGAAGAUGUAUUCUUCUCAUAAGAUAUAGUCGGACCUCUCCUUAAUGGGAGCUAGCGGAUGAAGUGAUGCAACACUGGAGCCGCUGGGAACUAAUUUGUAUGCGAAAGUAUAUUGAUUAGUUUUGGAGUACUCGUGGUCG
Measurement conditions: 30 °C
// response body must contain only the number

Sequence data: CCGGAGCAAUAUUACGAUGA
Measured value: -2.7
//
Sequence data: GUAGAGCAAUAUUACGAAAU
Measured value: -1
//
Sequence data: AUGUAGCAAUAUUACGUCGA
Measured value: -3.98
//
Sequence data: UAAAAGCAAUAUUACGAAAG
Measured value: -2.21
//
Sequence data: AAGCAGCAAUAUUACGGAAC
Measured value: -3.6
//
Sequence data: UCAUAGCAAUAUUACGUCAA
Measured value: -2.44
//
Sequence data: CGUCAGCAAUAUUACGAUCA
Measured value: -0.722
//
Sequence data: GUCUAGCAAUAUUACGUCAA
Measured value: -1.4
//
Sequence data: AUCUAGCAAUAUUACGUGCA
Measured value: -0.394
//
Sequence data: CUUGAGCAAUAUUACGAGGG
Measured value: -3.25

Fill in reported self-splicing fitness (ln) for this entry: GCAAAGCAAUAUUACGUUAU
-1.73
